Recorded values, source the supplement of paper PMC8728848.

# ASSAY_SYSTEM: Neu5Ac(a2-3)Gal(b1-3)GlcNAc(b1-6)GalNAc
# EXPERIMENT_SUMMARY: glycan array binding signal (z-score within array); higher = stronger binding
# ASSAY_CONDITIONS: glycan notation: IUPAC condensed, linker removed
The entries come from a sample that favours the strongest signals as a whole.
Catalogue of glycan array binding signal (z-score) readings, one per entry.
# output: bare number, no unit

Prompt line: Dear colleague, please send me the reported glycan array binding signal (z-score) for DCIR1 (Mus musculus), Q9QZ15 (protein) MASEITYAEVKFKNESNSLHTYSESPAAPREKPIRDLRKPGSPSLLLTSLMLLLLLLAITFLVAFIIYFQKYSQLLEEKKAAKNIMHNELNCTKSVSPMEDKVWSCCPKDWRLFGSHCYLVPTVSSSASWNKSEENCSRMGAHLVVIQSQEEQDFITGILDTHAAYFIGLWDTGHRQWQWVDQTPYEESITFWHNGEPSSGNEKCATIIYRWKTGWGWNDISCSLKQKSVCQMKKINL when you can.
Response line: 0.265
